- target_or_test_system: RORγ-LBD (Homo sapiens, UniProt P51449)
- Construct: HIS-tagged RORγ-LBD was recombinantly expressed in SF9 cells; made in house; host or cells: SF9 cells (baculovirus); unpurified lysate
- Sequence (P51449 269-508 limits assumed): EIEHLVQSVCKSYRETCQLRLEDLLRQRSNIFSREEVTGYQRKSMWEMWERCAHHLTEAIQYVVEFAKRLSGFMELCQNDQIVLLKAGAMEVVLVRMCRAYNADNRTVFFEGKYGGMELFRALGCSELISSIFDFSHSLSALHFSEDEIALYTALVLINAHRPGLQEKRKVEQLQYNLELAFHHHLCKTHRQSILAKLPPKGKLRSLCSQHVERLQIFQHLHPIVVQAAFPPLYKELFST
- procedure_text: RORγ-Ligand Binding Domain TR-FRET Assay
- Assay type: biochemical
- particulars: Table 8, indazoles
pIC50: −log10 of the molar value.
endpoint_label: pIC50

// known answers, use as guide
O=C(Cc1ccc(Cl)cc1)Nc1ccc2cnn(S(=O)(=O)c3cccc(OC(F)F)c3)c2c1 = > 4.82
COC(=O)c1cccc(S(=O)(=O)n2ncc3ccc(NC(=O)c4c(F)cccc4Cl)cc32)c1 = > 4.82

Switching to the query record.
Problem: Please report the recorded pIC50 for Cc1nn(C(F)F)cc1S(=O)(=O)n1ncc2ccc(NC(=O)c3c(F)cccc3C(F)(F)F)cc21 .
Solution: > 4.82
